Method description: melting temperature; fluorescence melt of hairpins on a sequencing array, two-state fit, raised by 9.35 °C to match UV melts
Test conditions: sodium 0.088 M
Outcome measure: Tm

Q: Quick check: Tm of GATCGGAACACCGATC ((((((....)))))) ?
Result: 55.2 °C

Q: Quick check: Tm of GAATCTGGAAACAGATTC (((((((....))))))) ?
Result: 55.6 °C

Q: Quick check: Tm of GGAAAGGGAAACCCTTCC ((((.((....)).)))) ?
Result: 40 °C

Q: Quick check: Tm of GGAAGCGAAAGCTAGTCC ((((((....)))..))) ?
Result: 25.8 °C

Q: Quick check: Tm of GTCGACGGAAACATCGAC (((((.(....).))))) ?
Result: 46.3 °C

Q: Quick check: Tm of GACACCGAAAGGTAGTC ((((((....))).))) ?
Result: 50.1 °C

Q: Quick check: Tm of GATCCAAACCTGGATC ((((((....)))))) ?
Result: 49.8 °C

Q: Quick check: Tm of GACTAAGAAATTAGTC ((((((....)))))) ?
Result: 40.5 °C

Q: Quick check: Tm of GAATACGAAAGTACTTC ((((((....))).))) ?
Result: 30.2 °C

Q: Quick check: Tm of GCAACCGCGAAAGCGTGC (((..(((....)))))) ?
Result: 44.7 °C

Q: Quick check: Tm of GGCTCCGAAAGGATGGCC ((((((....)))..))) ?
Result: 52.3 °C

Q: Quick check: Tm of GTGCGACGAAAGTCCAC (((.(((....)))))) ?
Result: 52 °C

Q: Quick check: Tm of GTATTTGGAAACAAGTAC (((.(((....))).))) ?
Result: 35.7 °C

Q: Quick check: Tm of GGTTCCGAAAGGATACC ((((((....))).))) ?
Result: 48.8 °C

Q: Quick check: Tm of GGTCCCGAAAGGGTACC ((((((....))).))) ?
Result: 55.5 °C

Q: Quick check: Tm of GTCTTTGGAAACAGAGAC ((((.((....)).)))) ?
Result: 37.3 °C

Q: Quick check: Tm of GGACACGAAAGTGAGTCC ((((((....)))..))) ?
Result: 44.8 °C

Q: Quick check: Tm of GCTGACGCGAAAGCGAGC (((..(((....)))))) ?
Result: 47.1 °C

Q: Quick check: Tm of GTAACCGAAAGGTGATAC ((((((....)))..))) ?
Result: 30.7 °C

Q: Quick check: Tm of GCGGTGATCCGC ((((....)))) ?
Result: 54.8 °C

Q: Quick check: Tm of GGCAATGGAAACACTGCC ((((.((....)).)))) ?
Result: 44 °C

Q: Quick check: Tm of GCCTTCCCGAAAGGGGGC (((..(((....)))))) ?
Result: 47.7 °C

Q: Quick check: Tm of GTTGACCGAAAGGTGAAC (((.(((....))).))) ?
Result: 48.4 °C

Q: Quick check: Tm of GATCCTACAAAGGATC ((((((....)))))) ?
Result: 49.5 °C

Q: Quick check: Tm of GGAATATCGAAAGATTCC (((..(((....)))))) ?
Result: 33.3 °C

Q: Quick check: Tm of GTAGGCGAAAGCCATTAC ((((((....)))..))) ?
Result: 23 °C

Q: Quick check: Tm of GATCGCGCGAAAGCGATC (((..(((....)))))) ?
Result: 60.1 °C

Q: Quick check: Tm of GATAGGGGAAACCCTATC (((((((....))))))) ?
Result: 54.9 °C

Q: Quick check: Tm of GGGCCTCGAAAGAGCCCC (((.(((....))).))) ?
Result: 57.2 °C

Q: Quick check: Tm of GGTGTCGGAAACGGTACC (((..((....))..))) ?
Result: 40.9 °C

Q: Quick check: Tm of GAAGGGGAAACCCTTC ((((((....)))))) ?
Result: 53.8 °C

Q: Quick check: Tm of GCAAACGAAAGTTGCTGC ((((((....)))..))) ?
Result: 54.1 °C
